Please provide measured MIC for the entries that follow.
System: Ps. aeruginosa GN3379*
Assay: Antibacterial activity (MIC), agar dilution
Type: cell-based
Conditions: Pseudomonas aeruginosa, 20 h; Ps. aeruginosa GN3379, penicillinase-producing; 10^6 cells per ml; read-out: MIC

Some entries whose results are on file:
# COMPOUND, MIC
measured = [
    ("CN(C)c1ccc(-c2cc(=O)c(C(=O)O)cn2-c2ccccc2F)cc1", "> 100 µg/mL"),
    ("Cc1cc(O)ccc1-n1cc(C(=O)O)c(=O)cc1C1CC2C=CC1C2 (stereo not drawn)", "> 100 µg/mL"),
]

## Input Determine from records and report MIC for CN(C)c1ccc(-c2cc(=O)c(C(=O)O)cn2-c2cccc3c(O)cccc23)cc1
## Output > 100 µg/mL

# credit: patent US4698352A
